Origin of measurements: PubChem BioAssay (NCI)

System: HOP-62 NSCLC
Experiment: NCI tumour cell line growth inhibition, 48 h; in the data active = GI50 below about 0.43 µM; inactive = the rest
Outcome codes: 1 (yes) = active, 0 (no) = inactive

compound | class
Nc1nonc1C(=Nc1ccc(F)c(Cl)c1)NO | 0 (no)
CC(=O)/C=C/c1ccc(OCc2ccc(C(C)(C)C)cc2)cc1 | 0 (no)
C#CCn1cnc2cnc(Nc3cccc(NC(=O)CCl)c3)nc21 | 0 (no)
COc1cc2c(cc1OCCCCCn1c(-c3ccc(OCc4ccccc4)cc3)nc3cc(N4CCOCC4)ccc31)N=C[C@@H]1CCCN1C2=O | 0 (no)
Nc1nc(N)c(N=Nc2ccccc2)c(-c2ccccc2)n1 | 0 (no)
c1ccc([P+](c2ccccc2)(c2ccccc2)c2ccc3c4ccc([P+](c5ccccc5)(c5ccccc5)c5ccccc5)c5cccc(c6cccc2c63)c54)cc1 | 0 (no)
CCO/C=N/C1=C(C#N)C(c2ccc(OC)cc2)c2sc3c(F)cccc3c2O1 (centres undefined) | 0 (no)
CS(=O)(=O)O[C@H]1C(=O)N(c2cc3c4ccccc4ccc3c3ccccc23)[C@@H]1c1ccccc1 | 1 (yes)
CC(C)=[CH][Sb]([Br])([CH]=C(C)C)([CH]=C(C)C)[c]1ccccc1 | 0 (no)

###

System: EKVX NSCLC
Assay: NCI tumour cell line growth inhibition, 48 h
endpoint: TGI

mol.smiles | endpoint | reading
O=c1cc(-c2ccccc2)c2ccc(O)c(CN(CCCl)CCCl)c2o1 | TGI | 59.1 µM
COc1ccc(/C=C/C(=O)c2cc3c(N)c(C(=O)Nc4cccc(Cl)c4C)sc3nc2C)cc1 | TGI | > 50 µM
COc1cc([C@@H]2c3cc4c(cc3[C@@H](Nc3ccc(N=Cc5ccc(C(=O)O[C@@H](C(=O)O[C@H]6C[C@@]7(O)[C@@H](OC(=O)c8ccccc8)[C@@H]8[C@]9(OC(C)=O)CO[C@@H]9C[C@H](O)[C@@]8(C)C(=O)[C@H](OC(C)=O)C(=C6C)C7(C)C)[C@@H](NC(=O)c6ccccc6)c6ccccc6)cc5)cc3)[C@H]3COC(=O)[C@H]23)OCO4)cc(OC)c1O | TGI | > 50 µM
COCOc1cc(OCOC)cc(C(=O)Oc2ccccc2)c1 | TGI | > 100 µM
CC(=O)O[C@H]1C(=O)[C@@]2(C)[C@H]([C@H](OC(=O)c3ccccc3)[C@]3(O)C[C@H](OC(=O)[C@H](O)[C@@H](NC(=O)c4ccccc4)c4ccccc4C)C(C)=C1C3(C)C)[C@]1(OC(C)=O)CO[C@@H]1C[C@@H]2O | TGI | > 25 µM
NC(=S)N/N=C1\CCCCc2ccccc21 | TGI | > 10 µM
CC1=CC(C)(C)[C@H]2O[C@@]3(O)C[C@]4(C)[C@H]5C[C@@](C(C)C)(O[C@H]4c4ccoc4)O[C@H]4[C@]5(C3)O[C@@]1(O)[C@]24O | TGI | > 100 µM

###

Tested on: IGROV1 ovarian
Assay: NCI tumour cell line growth inhibition, 48 h
endpoint: TGI

compound | reading
C1CSC(Sc2nc(SC3=NCCS3)nc(SC3=NCCS3)n2)=N1 | > 100 µM
COc1ccc(CC#C/C=C/C(=O)NCC(C)C)cc1 | > 100 µM
Cc1ccc(-n2c(=O)c3nn4c(=O)n(-c5ccc(C)cc5)c(=O)c4nn3c2=O)cc1 | > 100 µM
CC(C)OC(=O)C1=C2c3ncccc3C(=O)N2[C@@H](Cl)[C@H](Cl)[C@H]1Cl | > 100 µM
Cc1cnc(-n2c(C)nc3cc(Cl)ccc3c2=O)s1 | > 100 µM
O/N=C1/C(=C/c2ccc(Cl)c(Cl)c2)CCCC1C(NO)c1ccc(Cl)c(Cl)c1 (stereo not given) | 38.5 µM
COc1cccc(/C=N/[N-]C(=O)c2ccncc2)c1[O-].[Ni+2].[OH3+] | > 100 µM
N#Cc1c(-c2ccccc2)cc(-c2ccccc2)n(CCCC(=O)NO)c1=O | 4.77 µM
COC1OC(COC(C)=O)C(OC(C)=O)C(OC(C)=O)C1NC(=O)N(CCCl)N=O (stereo not given) | > 100 µM
O=[N+]([O-])c1ccc(C2=Nn3c(nnc3-c3ccccc3)SC2)o1 | 47.6 µM
